test: Intrinsic clearance in rat hepatocytes measured per million cells at 1 uM measured for 0.5 to 120 mins by LC-MS/MS analysis; format: ADME, cell-based, Hepatocyte; conditions: time 0.5-120 min, read-out: CLH
READOUT_NAME: hepatocyte CLint at 1 µM (µL/min/1e6 cells)

[
  {
    "COMPOUND": "Cn1c(=O)n([C@H]2CCC(=O)NC2=O)c2cccc(C#CCOC3CCN(C[C@H]4CC[C@H](n5cc(NC(=O)c6cnn7ccc(N8C[C@H]9C[C@@H]8CO9)nc67)c(C(F)F)n5)CC4)CC3)c21",
    "BOUND_SIGN": "=",
    "READOUT_NUMBER": 11
  },
  {
    "COMPOUND": "COc1cc(O[C@H]2C(C)(C)[C@H](NC(=O)c3ccc(N4CCC(CN5CCN(c6ccc(C(=O)N[C@H]7CCC(=O)NC7=O)c(F)c6)CC5)CC4)cc3)C2(C)C)ccc1C#N [LUXDEGALUTAMIDE]",
    "BOUND_SIGN": "=",
    "READOUT_NUMBER": 2
  },
  {
    "COMPOUND": "CCc1cc(N2C(=S)N(c3ccc(C#N)c(C(F)(F)F)c3)C(=O)C2(C)C)ccc1OCCN1CCN(CC(=O)Nc2cccc(NC3CCC(=O)NC3=O)c2)[C@H](C)C1 (stereo not given in full)",
    "BOUND_SIGN": "=",
    "READOUT_NUMBER": 11
  },
  {
    "COMPOUND": "NC(=O)c1ncc(N2CCCCC2)nc1Nc1ccc(C2CCN(C[C@@H]3CCN(c4ccc5c(c4)C(=O)N(C4CCC(=O)NC4=O)C5=O)C3)CC2)cc1 (stereo not given in full)",
    "BOUND_SIGN": "=",
    "READOUT_NUMBER": 5
  },
  {
    "COMPOUND": "COc1cc(-c2cn(C)c(=O)c3cnc(N4CCC4)cc23)cc(OC)c1CN1CCC(CN2CCC3(CC2)CN(c2ccc4c(c2)C(=O)N([C@H]2CCC(=O)NC2=O)C4)C3)CC1",
    "BOUND_SIGN": "<",
    "READOUT_NUMBER": 1
  }
]

====

assay: Protein binding in rat hepatocytes assessed as free fraction at 5 uM incubated for 18 hrs by LC-MS/MS analysis; format: ADME, cell-based, Hepatocyte
# fraction unbound at 18 h, 5 µM per entry
READOUT_NAME: fraction unbound at 18 h, 5 µM

[
  {
    "COMPOUND": "COc1cc(O[C@H]2C(C)(C)[C@H](NC(=O)c3ccc(N4CCC(CN5CCN(c6ccc(C(=O)N[C@H]7CCC(=O)NC7=O)c(F)c6)CC5)CC4)cc3)C2(C)C)ccc1C#N [LUXDEGALUTAMIDE]",
    "READOUT_NAME": "fraction unbound at 18 h, 5 µM",
    "BOUND_SIGN": "=",
    "READOUT_NUMBER": 0.01
  },
  {
    "COMPOUND": "Cc1ncsc1-c1ccc([C@H](C)NC(=O)[C@@H]2C[C@@H](O)CN2C(=O)[C@@H](NC(=O)CCCCCC(=O)N2CCN(CC[C@H](CSc3ccccc3)Nc3ccc(S(=O)(=O)NC(=O)c4ccc(N5CCN(CC6=C(c7ccc(Cl)cc7)CCC(C)(C)C6)CC5)cc4)cc3S(=O)(=O)C(F)(F)F)CC2)C(C)(C)C)cc1 [DT-2216]",
    "READOUT_NAME": "fraction unbound at 18 h, 5 µM",
    "BOUND_SIGN": "<",
    "READOUT_NUMBER": 0.001
  }
]

====

experiment: Solubility of compound in FaSSIF at pH 6.5 measured after 24 hrs by UPLC analysis; assay type: physicochemical
So basically: solubility at 24 h at 2 µg/mL or higher? That is fulfilled. Lower than 2 µg/mL? That is not fulfilled.

[
  {
    "COMPOUND": "N#Cc1ccc(O[C@H]2CC[C@H](NC(=O)c3ccc(N4CCC(CN5CCN(c6cc7c(cc6F)C(=O)N([C@H]6CCC(=O)NC6=O)C7=O)CC5)CC4)nn3)CC2)cc1Cl",
    "CLASS_NAME": "not fulfilled"
  },
  {
    "COMPOUND": "CCc1cc(N2C(=S)N(c3ccc(C#N)c(C(F)(F)F)c3)C(=O)C2(C)C)ccc1OCCN1CCN(CC(=O)Nc2cccc(NC3CCC(=O)NC3=O)c2)[C@H](C)C1 (stereo partly specified)",
    "CLASS_NAME": "not fulfilled"
  },
  {
    "COMPOUND": "Cn1c(=O)n([C@H]2CCC(=O)NC2=O)c2cccc(C#CCOC3CCN(C[C@H]4CC[C@H](n5cc(NC(=O)c6cnn7ccc(N8C[C@H]9C[C@@H]8CO9)nc67)c(C(F)F)n5)CC4)CC3)c21",
    "CLASS_NAME": "not fulfilled"
  },
  {
    "COMPOUND": "CN1CCN([C@@H]2CCCN(c3cnc(C(N)=O)c(Nc4ccc(C5CCN(CC6CCN(c7ccc(C(=O)N[C@H]8CCC(=O)NC8=O)nc7)CC6)CC5)cc4)n3)C2)C1=O [NX-5948]",
    "CLASS_NAME": "fulfilled"
  },
  {
    "COMPOUND": "COc1cc(O[C@H]2C(C)(C)[C@H](NC(=O)c3ccc(N4CCC(CN5CCN(c6ccc(C(=O)N[C@H]7CCC(=O)NC7=O)c(F)c6)CC5)CC4)cc3)C2(C)C)ccc1C#N [LUXDEGALUTAMIDE]",
    "CLASS_NAME": "not fulfilled"
  },
  {
    "COMPOUND": "O=C1CC[C@H](N2Cc3cc(N4CCN(CC5CCN(c6ccc([C@@H]7c8ccc(O)cc8CC[C@@H]7c7ccccc7)cc6)CC5)CC4)ccc3C2=O)C(=O)N1 [VEPDEGESTRANT]",
    "CLASS_NAME": "fulfilled"
  }
]

====

assay: Intrinsic clearance in mouse hepatocytes measured per million cells at 1 uM measured for 0.5 to 120 mins by LC-MS/MS analysis; format: ADME, cell-based, Hepatocyte; conditions: time 0.5-120 min, read-out: CLH

[
  {
    "MOLECULE": "COc1cc(-c2cn(C)c(=O)c3cnc(N4CCC4)cc23)cc(OC)c1CN1CCC(CN2CCC3(CC2)CN(c2ccc4c(c2)C(=O)N([C@H]2CCC(=O)NC2=O)C4)C3)CC1",
    "BOUND_SIGN": "=",
    "hepatocyte CLint at 1 µM, µL/min/1e6 cells": 5
  },
  {
    "MOLECULE": "N#Cc1ccc(O[C@H]2CC[C@H](NC(=O)c3ccc(N4CCC(CN5CCN(c6cc7c(cc6F)C(=O)N([C@H]6CCC(=O)NC6=O)C7=O)CC5)CC4)nn3)CC2)cc1Cl",
    "BOUND_SIGN": "=",
    "hepatocyte CLint at 1 µM, µL/min/1e6 cells": 3
  },
  {
    "MOLECULE": "NC(=O)c1ncc(N2CCCCC2)nc1Nc1ccc(C2CCN(C[C@@H]3CCN(c4ccc5c(c4)C(=O)N(C4CCC(=O)NC4=O)C5=O)C3)CC2)cc1 (stereo not given in full)",
    "BOUND_SIGN": "=",
    "hepatocyte CLint at 1 µM, µL/min/1e6 cells": 8
  },
  {
    "MOLECULE": "COc1cc(O[C@H]2C(C)(C)[C@H](NC(=O)c3ccc(N4CCC(CN5CCN(c6ccc(C(=O)N[C@H]7CCC(=O)NC7=O)c(F)c6)CC5)CC4)cc3)C2(C)C)ccc1C#N [LUXDEGALUTAMIDE]",
    "BOUND_SIGN": "=",
    "hepatocyte CLint at 1 µM, µL/min/1e6 cells": 4
  },
  {
    "MOLECULE": "Cc1ncsc1-c1ccc([C@H](C)NC(=O)[C@@H]2C[C@@H](O)CN2C(=O)[C@@H](NC(=O)CCCCCC(=O)N2CCN(CC[C@H](CSc3ccccc3)Nc3ccc(S(=O)(=O)NC(=O)c4ccc(N5CCN(CC6=C(c7ccc(Cl)cc7)CCC(C)(C)C6)CC5)cc4)cc3S(=O)(=O)C(F)(F)F)CC2)C(C)(C)C)cc1",
    "BOUND_SIGN": "<",
    "hepatocyte CLint at 1 µM, µL/min/1e6 cells": 1
  }
]

====

Listing of recorded hepatocyte CLint at 1 µM by entry.
test: Intrinsic clearance in dog hepatocytes measured per million cells at 1 uM measured for 0.5 to 120 mins by LC-MS/MS analysis; type: ADME, cell-based, Canis lupus familiaris, Hepatocyte; conditions: time 0.5-120 min, read-out: CLH
READOUT_NAME: hepatocyte CLint at 1 µM (µL/min/1e6 cells)

[
  {
    "MOLECULE": "N#Cc1ccc(O[C@H]2CC[C@H](NC(=O)c3ccc(N4CCC(CN5CCN(c6cc7c(cc6F)C(=O)N([C@H]6CCC(=O)NC6=O)C7=O)CC5)CC4)nn3)CC2)cc1Cl",
    "BOUND_SIGN": "<",
    "READOUT_NUMBER": 1
  },
  {
    "MOLECULE": "O=C1CC[C@H](N2Cc3cc(N4CCN(CC5CCN(c6ccc([C@@H]7c8ccc(O)cc8CC[C@@H]7c7ccccc7)cc6)CC5)CC4)ccc3C2=O)C(=O)N1",
    "BOUND_SIGN": "=",
    "READOUT_NUMBER": 3
  },
  {
    "MOLECULE": "CCc1cc(N2C(=S)N(c3ccc(C#N)c(C(F)(F)F)c3)C(=O)C2(C)C)ccc1OCCN1CCN(CC(=O)Nc2cccc(NC3CCC(=O)NC3=O)c2)[C@H](C)C1 (stereo partly specified)",
    "BOUND_SIGN": "≤",
    "READOUT_NUMBER": 1
  },
  {
    "MOLECULE": "Cc1ncsc1-c1ccc([C@H](C)NC(=O)[C@@H]2C[C@@H](O)CN2C(=O)[C@@H](NC(=O)CCCCCC(=O)N2CCN(CC[C@H](CSc3ccccc3)Nc3ccc(S(=O)(=O)NC(=O)c4ccc(N5CCN(CC6=C(c7ccc(Cl)cc7)CCC(C)(C)C6)CC5)cc4)cc3S(=O)(=O)C(F)(F)F)CC2)C(C)(C)C)cc1",
    "BOUND_SIGN": "<",
    "READOUT_NUMBER": 1
  },
  {
    "MOLECULE": "NC(=O)c1ncc(N2CCCCC2)nc1Nc1ccc(C2CCN(C[C@@H]3CCN(c4ccc5c(c4)C(=O)N(C4CCC(=O)NC4=O)C5=O)C3)CC2)cc1 (stereo partly specified)",
    "BOUND_SIGN": "=",
    "READOUT_NUMBER": 4
  },
  {
    "MOLECULE": "Cn1c(=O)n([C@H]2CCC(=O)NC2=O)c2cccc(C#CCOC3CCN(C[C@H]4CC[C@H](n5cc(NC(=O)c6cnn7ccc(N8C[C@H]9C[C@@H]8CO9)nc67)c(C(F)F)n5)CC4)CC3)c21",
    "BOUND_SIGN": "=",
    "READOUT_NUMBER": 4
  }
]
